Ref: PubChem BioAssay (NCI)

For each entry below, report its growth inhibition value.
experiment: NCI Yeast Anticancer Drug Screen. Data for the mec2-1 strain (AID 157); conditions: S. cerevisiae mec2-1 strain, at 50.0 µM, active compounds read high
Compounds without any hit were thinned out: in the full panel of roughly 79,000, 15% have a hit.
Please give a number only; it is taken to be in %.

Recorded growth inhibition of O=C(NCCCCCCNC(=O)Oc1ccccc1F)Oc1ccccc1F , please. -14.5

Recorded growth inhibition of CC(C)c1ccccc1NC(=O)C(=O)Cc1nc2ccccc2s1 , please. 7.2

Recorded growth inhibition of Cc1ccc(/C=N/NC(=O)Cc2cccc3ccccc23)cc1 , please. 13.4

Recorded growth inhibition of O=S(=O)(N/N=C/c1ccc(Cl)c(Cl)c1)c1ccccc1 , please. 13.6
